# System: IL-6 secretion
# method.summary: Inhibition of induced IL-6 secretion in human PBMCs (CBA)
# Assay type: cell-based
# test.parameters: PBMC, R848 1 µg/mL, read-out: IC50 of compounds against induced secretion, IL-6, R848
pIC50: −log10 of the molar value.
outcome.measure: pIC50

{"compound": "Cn1c(=O)n(C2CCC(=O)NC2=O)c2cccc(C#CCOC3CCN(C[C@H]4CC[C@H](n5cc(NC(=O)c6cnn7ccc(N8C[C@H]9C[C@@H]8CO9)nc67)c(C(F)F)n5)CC4)CC3)c21 (some centres unmarked) [KT-474, reference compound]", "system": "IL-6 secretion", "reported": 7.85}
{"compound": "Cn1c(=O)n(C2CCC(=O)NC2=O)c2cccc(C#CCOC34CCC(CN5CCC6(CC5)CC(n5cc(NC(=O)c7cnn8ccc(N9C[C@H]%10C[C@@H]9CO%10)nc78)c(C(F)F)n5)C6)(CC3)CC4)c21 (some centres unmarked) [Example 52]", "system": "IL-6 secretion", "reported": 7.69}
{"compound": "Cn1c(=O)n(C2CCC(=O)NC2=O)c2cccc(C#CCO[C@H]3CC[C@H](CN4CCC5(CC4)CC(n4cc(NC(=O)c6cnn7ccc(N8C[C@H]9C[C@@H]8CO9)nc67)c(C(F)F)n4)C5)CC3)c21 (some centres unmarked) [Example 31]", "system": "IL-6 secretion", "reported": 9.05}
{"compound": "Cn1c(=O)n(C2CCC(=O)NC2=O)c2cccc(C#CCOC3CCN(C(=O)N4CCC5(CC4)CC(n4cc(NC(=O)c6cnn7ccc(N8C[C@H]9C[C@@H]8CO9)nc67)c(C(F)F)n4)C5)CC3)c21 (some centres unmarked) [Example 13]", "system": "IL-6 secretion", "reported": 8.00}
{"compound": "Cn1c(=O)n(C2CCC(=O)NC2=O)c2cccc(C#CCCN3CCC4(CC3)CC(n3cc(NC(=O)c5cnn6ccc(N7C[C@H]8C[C@@H]7CO8)nc56)c(C(F)F)n3)C4)c21 (some centres unmarked) [Example 22]", "system": "IL-6 secretion", "reported": 9.80}
